These entries and their values trace back to patent US5622962A.

- Experimental target: Type II 5α-Reductase from Human Prostate (Homo sapiens, UniProt P31213)
- Construct: The same procedure as above was used for preparations using tissue from prostate surgery; from tissue; host or cells: human prostate tissue from surgery, homogenate, 100,000×g pellet
- Sequence (P31213 whole entry): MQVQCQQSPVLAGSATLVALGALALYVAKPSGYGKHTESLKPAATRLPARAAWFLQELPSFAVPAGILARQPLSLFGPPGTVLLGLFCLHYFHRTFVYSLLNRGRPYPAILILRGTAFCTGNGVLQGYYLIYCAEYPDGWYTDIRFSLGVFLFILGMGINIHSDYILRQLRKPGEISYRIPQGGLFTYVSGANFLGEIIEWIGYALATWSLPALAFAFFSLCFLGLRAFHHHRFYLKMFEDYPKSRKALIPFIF
- Method: Human Type II 5α-reductase assay (conversion of [3H]-testosterone to 5α-reduced metabolites)
- Format: biochemical
- Test context: pH 5.5, 0.3 μM; sodium acetate pH 5.5, 25°, 30 min; compared to control reaction mixtures; read-out: percent inhibition of Type II AR
Readout type: inhibition at 0.3 µM (%)
# number only, unit % dropped from output

Solved entries (count: 3):
| Structure notation | inhibition at 0.3 µM, % |
| --- | --- |
| C[C@]12CCC(=O)N[C@@H]1CCc1cc(Sc3ccccc3Cl)ccc12 | 42 |
| CN1C(=O)CC[C@]2(C)c3ccc(-c4cccc5cccnc45)cc3CC[C@@H]12 | 27 |
| CN1C(=O)CC[C@]2(C)c3ccc(Sc4cc(-c5ccccc5)cc(-c5ccccc5)n4)cc3CC[C@@H]12 | 31 |

# evaluate next
Challenge: Could you tell me which inhibition at 0.3 µM is on file for C[C@]12CCC(=O)N[C@@H]1CCc1cc(CSc3nc4ccccc4s3)ccc12 ?
Response given: 8
